# Tested Target: SIK2 (Homo sapiens)
# Experimental Protocol: SIK2 Enzymatic Assay High Version 2 (High ATP)
# Format: biochemical
# Cond: enzyme 6 nM, 6 mM ATP and 400 μM HDAC5tide (each 2× final concentration); 30 minutes pre-incubation, 2 hours; ADP-Glo Max luminescence; read-out: SIK2 high ATP IC50 (μM) (Test Example 2)
Measured IC50, listed per entry for reference.

In the examples that follow, each entry is paired with its recorded IC50.
INSERT INTO assay_data (molecule, endpoint_name, measured_result) VALUES
  ('Cc1cnc(Nc2cc3cc(-c4cc(C)ncc4OC[C@@]45CN[C@@H](CO4)C5)ccn3n2)cn1 [Example 257]', 'IC50', '0.00446 µM'),
  ('Cc1cc(-c2ccn3nc(Nc4ccc(C)nn4)cc3c2)c(OC[C@@]23CN[C@@H](CO2)C3)cn1 [Example 254]', 'IC50', '0.00637 µM'),
  ('CC#Cc1cc(-c2ccn3nc(Nc4cc(C)nc(C)n4)cc3c2)c(OC[C@@H]2OCC[C@H]2O)cn1 [Example 671]', 'IC50', '0.204 µM');

# evaluate next
IC50 recorded for this molecule, Cc1cc(-c2ccn3nc(Nc4cc(C)nc(C)n4)cc3c2)c(OC[C@H]2C[C@@H](O)CO2)cn1 [Example 204] , is 0.087 µM

====

# Tested Target: SIK2 (Homo sapiens, UniProt Q9H0K1)
# Sequence (Q9H0K1 whole entry, species assumed): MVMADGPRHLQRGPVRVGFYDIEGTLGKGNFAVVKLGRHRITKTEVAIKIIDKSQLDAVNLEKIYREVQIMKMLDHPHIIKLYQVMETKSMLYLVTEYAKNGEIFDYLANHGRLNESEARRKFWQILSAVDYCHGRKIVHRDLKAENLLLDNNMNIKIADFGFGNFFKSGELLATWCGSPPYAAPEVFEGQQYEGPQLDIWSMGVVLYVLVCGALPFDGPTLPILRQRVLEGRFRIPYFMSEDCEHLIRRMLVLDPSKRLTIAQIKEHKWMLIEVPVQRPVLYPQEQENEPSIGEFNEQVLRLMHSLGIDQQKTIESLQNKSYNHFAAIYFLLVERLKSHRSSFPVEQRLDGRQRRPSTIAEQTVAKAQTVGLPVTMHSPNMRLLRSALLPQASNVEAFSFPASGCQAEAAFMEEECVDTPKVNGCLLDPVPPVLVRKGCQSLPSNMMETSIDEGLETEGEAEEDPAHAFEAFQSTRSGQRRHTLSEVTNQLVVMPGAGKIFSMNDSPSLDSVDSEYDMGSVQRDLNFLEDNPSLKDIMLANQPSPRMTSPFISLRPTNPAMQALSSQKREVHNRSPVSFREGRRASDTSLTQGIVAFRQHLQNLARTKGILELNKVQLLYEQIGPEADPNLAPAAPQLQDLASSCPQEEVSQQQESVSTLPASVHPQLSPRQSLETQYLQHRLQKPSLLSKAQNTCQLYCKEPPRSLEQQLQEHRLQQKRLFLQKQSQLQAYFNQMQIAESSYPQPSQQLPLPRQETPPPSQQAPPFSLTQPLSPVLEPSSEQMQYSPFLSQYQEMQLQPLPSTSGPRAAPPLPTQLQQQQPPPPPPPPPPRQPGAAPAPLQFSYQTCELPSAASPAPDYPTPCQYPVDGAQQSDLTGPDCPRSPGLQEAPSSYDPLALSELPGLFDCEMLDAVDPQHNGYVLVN
# Experimental Protocol: SIK2 Enzymatic Assay High Version 2 (High ATP)
# Assay type: biochemical
# Cond: enzyme 6 nM, 6 mM ATP and 400 μM HDAC5tide (each 2× final concentration); 30 minutes pre-incubation, 2 hours; ADP-Glo Max luminescence; read-out: SIK2 high ATP IC50 (μM) (Test Example 2)
Endpoint Name: IC50 (µM)
Give just the number in µM; leave the unit off.

INSERT INTO results (compound, u, measured_result) VALUES
  ('Cc1cc(-c2ccn3nc(Nc4cc(C)nc(C)n4)cc3c2)c(OC2CCS(=O)(=O)CC2)cn1', 'µM', 0.0055),
  ('Cn1nc(Nc2cc3cc(-c4cc(OC(F)F)ncc4OCC(C)(C)C#N)ccn3n2)ccc1=O', 'µM', 0.00317),
  ('Cc1cc(-c2ccn3nc(Nc4cc(C)nc(C)n4)cc3c2)c(OC[C@@]2(C)CCOC2)cn1 (single isomer, unassigned)', 'µM', 0.0535);

The compound listed as Cc1cc(-c2ccn3nc(Nc4cc(C)nc(C)n4)cc3c2)c(OC[C@@]23CN[C@@H](CO2)C3)cn1 has a reported IC50 of 0.00226

====

# Tested Target: SIK2 (Homo sapiens)
# Experimental Protocol: SIK2 Enzymatic Assay High Version 2 (High ATP)
# Format: biochemical
As shown below, each of these molecules has a reported pIC50 value.
// pIC50: -log10(molar conc.)

Look over these answered cases.
INSERT INTO assay_data (molecule, measured_result) VALUES
  ('N#Cc1cc(-c2ccn3nc(NC(=O)C4CC4)cc3c2)c(O[C@H]2CC[C@H](O)CC2)cn1', 8.06),
  ('CN1[C@@H]2COC[C@H]1CC(Nc1cnc(C#N)cc1-c1ccn3nc(NC(=O)C4CC4)cc3c1)C2 (stereo partly shown)', 7.05),
  ('Cc1cc(-c2cc3cc(NC(=O)C4CC4)nn3cn2)c(O[C@H]2C[C@H]3COC[C@@H](C2)N3C)cn1', 8.71),
  ('Cc1cc(-c2ccn3nc(Nc4ccncn4)cc3c2)c(O[C@H]2C[C@H]3COC[C@@H](C2)N3C)cn1', 8.63),
  ('CNC(=O)c1ccnc(Nc2cc3cc(-c4cc(C)ncc4O[C@H]4C[C@H]5COC[C@@H](C4)N5C(=O)C4CC4)ccn3n2)c1', 6.44);

Lab note: Cc1cc(-c2ccn3nc(NC(=O)C4CC4)cc3c2)c(O[C@H]2C[C@H]3COC[C@@H](C2)N3C)cn1 gave pIC50 of 7.38

The measured values listed here are drawn from patent US20240158392A1.
